Molecular target: β-secretase (BACE) (Homo sapiens)
Construct: purchased Panvera
Sequence (P56817 46-501): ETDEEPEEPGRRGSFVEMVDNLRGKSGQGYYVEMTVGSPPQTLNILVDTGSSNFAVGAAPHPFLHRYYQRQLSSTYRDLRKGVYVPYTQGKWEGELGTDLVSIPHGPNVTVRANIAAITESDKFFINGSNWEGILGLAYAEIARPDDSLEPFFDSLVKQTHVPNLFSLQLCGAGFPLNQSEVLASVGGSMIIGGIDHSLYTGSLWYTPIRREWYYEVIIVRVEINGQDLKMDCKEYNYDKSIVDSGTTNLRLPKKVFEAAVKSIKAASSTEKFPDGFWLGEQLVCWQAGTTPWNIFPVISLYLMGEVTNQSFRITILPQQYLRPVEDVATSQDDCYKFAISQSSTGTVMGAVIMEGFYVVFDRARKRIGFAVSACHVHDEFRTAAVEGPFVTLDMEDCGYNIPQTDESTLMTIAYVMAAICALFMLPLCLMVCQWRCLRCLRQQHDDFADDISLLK
Test: BACE FS1 % Inhibition Assay
Type: biochemical
Details: 3 μM test compound
Quantity Measured: % Inhibition (FS) (%)

Below, 3 molecules whose answers are already recorded.
* CN(C(=O)c1cccc(CN2Cc3cc(Sc4cccc5ccccc45)ccc3N=C2N)c1)C1CCCCC1 [Compound 414] | 27
* CN(C(=O)c1cccc(CN2Cc3cc(-c4cccc(-c5ccccc5)c4)ccc3N=C2N)c1)C1CCCCC1 [Compound 171] | 42
* NC1=Nc2ccc(Oc3ccccc3)cc2CN1C(CNC(=O)CC1CCCC1)C1CCCCC1 (centres unmarked) [Compound 311] | 118

a. CC(C)C(CC(=O)NC1CCCCC1)N1Cc2cc(Oc3ccccc3)ccc2N=C1N (centres unmarked) [Compound 401]
b. NC1=Nc2ccc(-c3ccccc3Cl)cc2CN1CCNC(=O)C1CCC1 [Compound 649]
Query string: # return whichever of a and b has the smaller % Inhibition (FS) Could you answer with the label of the item you picked?
Result string: a

a. CCC(c1cccc(C(=O)N(C2CCCCC2)C2CCCCC2)c1)N1Cc2cc(Oc3ccccc3)ccc2N=C1N (centres unmarked) [Compound 419]
b. NC1=Nc2ccc(Oc3ccccc3)cc2CN1CCNCC1CCCCC1 [Compound 427]
c. CC(C)[C@@H](CNC(=O)C1CCCCC1)N1Cc2cc(Oc3ccccc3)ccc2N=C1N [Compound 528]
Query string: Order the records, beginning with the lowest % Inhibition (FS) and ending with the highest. Reply with the item labels sorted in the order that was asked for.
Result string: c, b, a

1. NC1=Nc2ccc(Oc3ccccc3)cc2CN1C(CCCC(=O)N1CCCCC1)CCC(=O)N1CCCCC1 (centres unmarked) [Compound 452]
2. COc1ccccc1-c1ccc2c(c1)CN(C(CCC(=O)N(C)C1CCCCC1)C1CCCCC1)C(N)=N2 (centres unmarked) [Compound 227]
3. COc1ccccc1-c1ccc2c(c1)CN(CCNC(=O)CCN)C(N)=N2 [Compound 493]
Query string: Put the items in sequence by % Inhibition (FS), from largest down. The labels, placed in the requested order, form the answer.
Result string: 2, 1, 3

P. CCCCCCCCC(CCC(=O)NC1CCCCCC1)N1Cc2cc(Oc3ccccc3)ccc2N=C1N (centres unmarked) [Compound 208]
Q. Cc1cc(C)cc(Oc2ccc3c(c2)CN(Cc2cccc(C(=O)N(C)C4CCCCC4)c2)C(N)=N3)c1 [Compound 228]
Query string: Consider entries P and Q . Which has the numerically lower % Inhibition (FS)? Mark your selection by writing its label.
Result string: Q

A. CN(C)c1cccc(Oc2ccc3c(c2)CN(Cc2cccc(C(=O)N(C)C4CCCCC4)c2)C(N)=N3)c1 [Compound 479]
B. CCCc1cccc(C)c1Oc1ccc2c(c1)CN(Cc1cccc(C(=O)N(C)C3CCCCC3)c1)C(N)=N2 [Compound 482]
C. COc1ccccc1-c1ccc2c(c1)CN(Cc1cccc(C(=O)N(C)C3CCCCC3)c1)C(NC(C)=O)=N2 [Compound 607]
Query string: // sort entries: % Inhibition (FS), high to low Would you mind listing the labels in the order asked for?
Result string: C, A, B

a. CC(=O)Nc1cccc(-c2ccc3c(c2)CN(Cc2cccc(C(=O)N(C)C4CCCCC4)c2)C(N)=N3)c1 [Compound 166]
b. NC1=Nc2ccc(Oc3ccccc3)cc2CN1Cc1cccc(NC(=O)C2CCCCC2)c1 [Compound 286]
Query string: Between the entries labeled a and b , whose measured % Inhibition (FS) is lower? Output the label that corresponds to your choice.
Result string: b

1. CCCC(=O)NCCN1Cc2cc(-c3ccccc3F)ccc2N=C1N [Compound 645]
2. CN(C(=O)c1ncoc1CN1Cc2cc(Oc3ccccc3)ccc2N=C1N)C1CCCCC1 [Compound 641]
Query string: For the pair 1 and 2 , which member has the lower % Inhibition (FS) number? To answer, give the label that identifies your chosen option.
Result string: 2

P. NC1=Nc2ccc(-c3ccccc3F)cc2CN1CCNC(=O)C1CCC1 [Compound 642]
Q. CC(=O)c1ccccc1-c1ccc2c(c1)CN(Cc1cccc(C(=O)N(C)C3CCCCC3)c1)C(N)=N2 [Compound 323]
Query string: I'm curious whether P or Q has the smaller % Inhibition (FS) number. Which is it? Mark your answer with the label of the selected entry.
Result string: Q

Source listed as patent US8426429B2.
